// provenance: paper PMC4351158

Biological target: T1, DegS T169A/H198P (E. coli, UniProt P0AEE3 27-355, T169A | H198P)
T1 sequence (looked up): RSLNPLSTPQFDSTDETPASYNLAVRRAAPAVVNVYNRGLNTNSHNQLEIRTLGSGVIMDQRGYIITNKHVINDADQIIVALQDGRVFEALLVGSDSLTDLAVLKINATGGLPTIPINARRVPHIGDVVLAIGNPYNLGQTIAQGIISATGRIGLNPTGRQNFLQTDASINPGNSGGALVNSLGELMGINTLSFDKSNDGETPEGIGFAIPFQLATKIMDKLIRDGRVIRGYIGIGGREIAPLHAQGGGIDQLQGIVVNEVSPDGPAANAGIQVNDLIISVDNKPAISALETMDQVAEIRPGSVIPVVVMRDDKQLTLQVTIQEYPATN
Assay: fluorescence polarisation
Where no end group is shown, it is not given here. fluorescein = fluorescein, a fluorescent label on the peptide N-terminus
Metric Name: Kd (nM)
Return type: number; implicit unit nM.

Req: Using known records, supply Kd for fluorescein-DNRDGNVYYF [fluorescent OMP peptide fluorescein-DNRDGNVYYF]
Resp: 2000
